Target: T1, Recombinant soluble extracellular domain of human MerTK (human, UniProt Q12866 21-505)
T1 construct: SPR analyte; also called hMerTK
T1 sequence: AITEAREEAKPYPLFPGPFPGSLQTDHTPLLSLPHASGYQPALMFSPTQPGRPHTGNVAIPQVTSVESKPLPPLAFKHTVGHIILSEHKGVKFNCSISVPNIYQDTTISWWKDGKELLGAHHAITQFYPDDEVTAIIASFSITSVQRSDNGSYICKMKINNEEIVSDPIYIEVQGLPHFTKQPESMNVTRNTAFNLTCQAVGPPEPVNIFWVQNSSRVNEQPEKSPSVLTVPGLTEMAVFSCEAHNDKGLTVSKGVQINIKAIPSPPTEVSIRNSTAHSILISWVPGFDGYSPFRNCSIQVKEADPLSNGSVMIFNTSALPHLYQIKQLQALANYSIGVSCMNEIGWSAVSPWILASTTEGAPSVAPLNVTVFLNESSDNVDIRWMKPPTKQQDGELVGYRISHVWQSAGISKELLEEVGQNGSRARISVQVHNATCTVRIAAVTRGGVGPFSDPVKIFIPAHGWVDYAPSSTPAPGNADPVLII
Experiment: SPR, mAb captured, soluble MerTK ECD as analyte, 37 C
readout name: kon (M⁻¹ s⁻¹)
Report only the number, with the unit M⁻¹ s⁻¹ understood.

binder: HuMAb 10K11 (antibody, human IgG1, kappa, V domains shown, Human anti-hMerTK mAb, Bin 1) VH: QLQLQESGPGLVKPSETLSLTCAVSGYSISSDYSWGWIRQPPGKGLEWIGSIYHSGNTYFNPSLKSRVTISVDTSKNQFSLKLSSVTAADTAVYYCARDKSYYFGPGSMDVWGQGTTVTVSS VL: AIQLTQSPSSLSASVGDRVTITCRASQGISSALAWYQQKPGKAPKLLIYDASSLESGVPSRFSGSGSGTDFTLTISSLQPEDFATYYCQQFKSYLTFGQGTRLEIKR
unit tag: M⁻¹ s⁻¹
kon: 132000

Turning now to a further record.
Answer with the recorded kon of HuMAb 22I16 (antibody, human IgG1, kappa, V domains shown, Human anti-hMerTK mAb, Bin 1; also called 22116) VH: EVQLVESGGGLVQPGGSLRLSCAASGFTFSSYSMNWVRQAPGKGLEWVSYIISGSDTIFYADSVKGRFTISRDNAKNSLYLQMNSLRDEDTAVYYCARDETVVRGVINYFDYWGQGTLVTVSS VL: AIQLTQSPSSLSASVGDRVTITCRSSQGISSALAWYQQKPGKAPKLLIYDASSLESGVPSRFSGSGSGTDFTLTISSLQPEDFATYYCQQFISYPTFGQGTRLEIKR only.
73500
